Source of measurements: paper PMC7991740

- TEST_TARGET: HLA-DRB5*01:01 (Homo sapiens, UniProt P01903+Q30154)
- Construct: Human leukocyte antigen-DR molecules were immunopurified from homozygous EBV B lymphoblastoid cells; endogenous in cells
- ASSAY_NAME: biochemical
- Type: binding
- MEASUREMENT_CONTEXT: […]; mean of at least two independent experiments; read-out: IC50 DRB5*0101
pIC50: −log10 of the molar value.
RECORDED_METRIC: pIC50

>  <STRUCTURE_AS_SMILES>
CC(C)C[C@H](NC(=O)[C@H](CCCCN)NC(=O)[C@H](CC(C)C)NC(=O)C(C)(C)NC(=O)[C@H](CC(N)=O)NC(=O)[C@H](CCC(N)=O)NC(=O)[C@H](CCCCN)NC(=O)[C@@H](NC(=O)[C@H](Cc1ccc(O)cc1)NC(=O)[C@H](CCCCN)NC(=O)[C@@H]1CCCN1)C(C)C)C(=O)N[C@@H](C)C(=O)N[C@H](C(=O)O)[C@@H](C)O

>  <TEST_TARGET>
HLA-DRB5*01:01 (Homo sapiens, UniProt P01903+Q30154)

>  <VALUE_OBSERVED>
6.85

$$$$
>  <STRUCTURE_AS_SMILES>
CC(C)C[C@H](NC(=O)[C@H](CCCCN)NC(=O)[C@H](CC(C)C)NC(=O)[C@@H](NC(=O)[C@H](CC(N)=O)NC(=O)[C@H](CCC(N)=O)NC(=O)[C@H](CCCCN)NC(=O)C(C)(C)NC(=O)[C@H](Cc1ccc(O)cc1)NC(=O)[C@H](CCCCN)NC(=O)[C@@H]1CCCN1)[C@@H](C)O)C(=O)N[C@@H](C)C(=O)N[C@H](C(=O)O)[C@@H](C)O

>  <TEST_TARGET>
HLA-DRB5*01:01 (Homo sapiens, UniProt P01903+Q30154)

>  <VALUE_OBSERVED>
6.55

$$$$
>  <STRUCTURE_AS_SMILES>
CC(C)C[C@H](NC(=O)[C@H](CCCCN)NC(=O)[C@H](CC(C)C)NC(=O)[C@@H](NC(=O)[C@H](CC(N)=O)NC(=O)[C@H](CCC(N)=O)NC(=O)[C@H](CCCCN)NC(=O)CN(C(=O)[C@H](Cc1ccc(O)cc1)NC(=O)[C@H](CCCCN)NC(=O)[C@@H]1CCCN1)C(C)C)[C@@H](C)O)C(=O)N[C@@H](C)C(=O)N[C@H](C(=O)O)[C@@H](C)O

>  <TEST_TARGET>
HLA-DRB5*01:01 (Homo sapiens, UniProt P01903+Q30154)

>  <VALUE_OBSERVED>
6.55

$$$$
>  <STRUCTURE_AS_SMILES>
CC(C)C[C@H](NC(=O)[C@H](CCCCN)NC(=O)[C@H](CC(C)C)NC(=O)[C@@H](NC(=O)[C@H](CC(N)=O)NC(=O)[C@H](CCC(N)=O)NC(=O)[C@H](CCCCN)NC(=O)[C@@H](NC(=O)[C@H](Cc1ccc(O)cc1)NC(=O)[C@H](CCCCN)NC(=O)[C@@H]1CCCN1)C(C)C)[C@@H](C)O)C(=O)N[C@@H](C)C(=O)NC(C)(C)C(=O)O

>  <TEST_TARGET>
HLA-DRB5*01:01 (Homo sapiens, UniProt P01903+Q30154)

>  <VALUE_OBSERVED>
8.70

$$$$
>  <STRUCTURE_AS_SMILES>
CC(C)C[C@H](NC(=O)[C@@H](NC(=O)[C@H](CC(N)=O)NC(=O)[C@H](CCC(N)=O)NC(=O)[C@H](CCCCN)NC(=O)[C@@H](NC(=O)[C@H](Cc1ccc(O)cc1)NC(=O)[C@H](CCCCN)NC(=O)[C@@H]1CCCN1)C(C)C)[C@@H](C)O)C(=O)N[C@@H](CCCCN)C(=O)N[C@@H](CC(C)C)C(=O)N(C)CC(=O)N[C@H](C(=O)O)[C@@H](C)O

>  <TEST_TARGET>
HLA-DRB5*01:01 (Homo sapiens, UniProt P01903+Q30154)

>  <VALUE_OBSERVED>
8.52

$$$$
>  <STRUCTURE_AS_SMILES>
CC(C)C[C@H](NC(=O)[C@H](CCCCN)NC(=O)[C@H](CC(C)C)NC(=O)[C@@H](NC(=O)[C@H](CC(N)=O)NC(=O)[C@H](CCC(N)=O)NC(=O)[C@H](CCCCN)NC(=O)[C@@H](NC(=O)[C@H](Cc1ccc(O)cc1)NC(=O)[C@H](CCCCN)NC(=O)[C@@H]1CCCN1)C(C)C)[C@@H](C)O)C(=O)NC(C)(C)C(=O)N[C@H](C(=O)O)[C@@H](C)O

>  <TEST_TARGET>
HLA-DRB5*01:01 (Homo sapiens, UniProt P01903+Q30154)

>  <VALUE_OBSERVED>
8.30

$$$$
